Target: T1, human NPR1 expressed on CHO-K1 cells in the presence of ANP (human, UniProt P01160 124-151)
T1 construct: also called hNPR1 CHO K1 + 100 nM ANP
T1 sequence: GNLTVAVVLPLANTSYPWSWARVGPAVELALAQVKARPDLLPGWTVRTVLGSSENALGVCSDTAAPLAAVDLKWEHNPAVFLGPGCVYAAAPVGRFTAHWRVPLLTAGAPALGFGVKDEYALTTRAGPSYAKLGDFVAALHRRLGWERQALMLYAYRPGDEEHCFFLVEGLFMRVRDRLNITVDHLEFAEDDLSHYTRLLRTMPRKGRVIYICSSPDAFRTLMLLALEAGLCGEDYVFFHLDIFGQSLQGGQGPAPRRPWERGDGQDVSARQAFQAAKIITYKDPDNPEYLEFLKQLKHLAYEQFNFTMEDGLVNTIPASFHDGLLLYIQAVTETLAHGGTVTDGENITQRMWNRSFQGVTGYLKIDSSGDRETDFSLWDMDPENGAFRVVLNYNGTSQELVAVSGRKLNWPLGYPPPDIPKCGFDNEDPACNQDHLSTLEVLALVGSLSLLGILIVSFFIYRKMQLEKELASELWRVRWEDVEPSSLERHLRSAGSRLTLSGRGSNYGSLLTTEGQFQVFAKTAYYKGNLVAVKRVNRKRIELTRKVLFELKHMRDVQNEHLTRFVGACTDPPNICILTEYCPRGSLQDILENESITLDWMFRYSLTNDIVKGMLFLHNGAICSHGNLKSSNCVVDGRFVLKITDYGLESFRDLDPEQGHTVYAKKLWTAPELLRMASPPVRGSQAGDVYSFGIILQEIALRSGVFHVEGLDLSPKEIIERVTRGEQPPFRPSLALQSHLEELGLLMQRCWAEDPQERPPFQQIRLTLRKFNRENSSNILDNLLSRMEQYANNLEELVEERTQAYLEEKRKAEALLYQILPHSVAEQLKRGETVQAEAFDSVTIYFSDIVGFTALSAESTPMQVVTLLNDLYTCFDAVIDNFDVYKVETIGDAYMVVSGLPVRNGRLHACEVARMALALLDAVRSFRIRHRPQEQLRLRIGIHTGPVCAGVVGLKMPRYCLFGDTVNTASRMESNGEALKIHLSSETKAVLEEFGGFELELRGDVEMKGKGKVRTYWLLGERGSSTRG
T1 sequence (peptide): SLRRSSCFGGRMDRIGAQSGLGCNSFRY
Assay: flow cytometry, 1 uM IgG, +100 nM ANP
Measured property: flow cytometry S/BG

Binder: YY05 IgG (YY05_LALA) (antibody, V domains shown) VH: EVQLVQSGAEVKKPGESLKISCKGSGYSFTSYWISWVRQMPGKGLEWMGIIYPGTSYTRYSPSFQGQVTISADKSISTAYLQWSSLKASDTAMYYCARGAVAGQLGFDHWGQGTLVTVSS VL: QSVLTQPPSVSGAPGQRVTISCTGSSSNIGAGYDVHWYQQLPGTAPKLLIYGNSNRPSGVPDRFSGSKSGTSASLAITGLQAEDEADYYCQSYYTSSHGPVFGGGTKLTVLG
Reported measurement: 5 S/BG
